- Test system: PKMYT1
- studyConditions: concentration: 1 μM, replicates: in singlicate; n = 1;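 note: KINOMEscan kinase panel screen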
%Inh less than 20% is criterion met; %Inh greater than or equal to 20% is criterion not met.

# molecule, group
measured = [
    ("CSc1ccc(NC2=C(c3ccc(Cl)cc3)C(=O)NC2=O)cc1", "criterion met"),
    ("CN(C)c1ncnc2nc[nH]c12", "criterion met"),
    ("CCOc1nccc(-c2c(-c3ccc(F)cc3)ncn2C2CCNCC2)n1", "criterion not met"),
    ("CS(=O)(=O)c1cccc(CNc2nc(Nc3ccc4c(c3)CCC(=O)N4)ncc2C(F)(F)F)c1", "criterion met"),
    ("O=C1NC(=O)C(c2ccccc2Cl)=C1Nc1cccc(Cl)c1", "criterion not met"),
]

====

Each item that follows carries a reported %Inh.
- System: TEC
- studyConditions: concentration: 1 μM, replicates: in singlicate; n = 1
measurementType: %Inh (%)

# compound, targetOfAssay, reportedMeasurement
rows = [
    ("CCn1cnc2c(NCc3ccccc3)ncnc21 [SKF-96418]", "TEC", 0),
    ("Nc1cccc(-c2ccc3c(N)n[nH]c3c2)c1 [GSK2193613]", "TEC", 0),
    ("CC(C)c1nc(-c2cccc(NS(=O)(=O)c3c(F)cccc3F)c2)c(-c2ccnc(Nc3ccc(N4CCOCC4)nc3)n2)s1.Cl [GSK1723980]", "TEC", 80),
    ("Nc1ncc(-c2ccc3nccc(-c4ccncc4)c3c2)cc1S(=O)(=O)N1CCCCC1 [GSK1693850]", "TEC", 0),
    ("CNc1nccc(-c2ccc3c(N)n[nH]c3c2)n1 [GSK2206003]", "TEC", 5),
]

====

- Tested on: IKK-alpha
- Construct: gene CHUK
- studyConditions: concentration: 1 μM, replicates: in singlicate; n = 1
measurementType: %Inh (%)

# molecule, targetOfAssay, reportedMeasurement
records = [
    ("CN(C)CCOc1ccc(-c2cc(-c3ccc(Cl)c(O)c3)c(-c3ccncc3)[nH]2)cc1.Cl.Cl [SB-684387]", "IKK-alpha", 9),
    ("CCn1cnc2c(NCc3ccccc3)ncnc21 [SKF-96418]", "IKK-alpha", 26),
    ("Cn1cc(-c2ccc3c(c2)CCN3C(=O)Cc2cc(F)cc(C(F)(F)F)c2)c2c(N)ncnc21 [GSK2635225]", "IKK-alpha", 0),
    ("Nc1ncc(-c2ccc3nccc(-c4ccncc4)c3c2)cc1S(=O)(=O)N1CCCCC1 [GSK1693850]", "IKK-alpha", 0),
    ("CSc1ccc(NC2=C(c3ccc(Cl)cc3)C(=O)NC2=O)cc1 [SB-317658]", "IKK-alpha", 0),
]
